Let's look at some binders and their measured IC50 (nM) in Murine IL-21R-BaF3 Neutralization Assay.
Target: murine IL-21R expressed on cells (murine, UniProt Q9JHX3 20-529)
Sequence (Q9JHX3 20-529 limits assumed): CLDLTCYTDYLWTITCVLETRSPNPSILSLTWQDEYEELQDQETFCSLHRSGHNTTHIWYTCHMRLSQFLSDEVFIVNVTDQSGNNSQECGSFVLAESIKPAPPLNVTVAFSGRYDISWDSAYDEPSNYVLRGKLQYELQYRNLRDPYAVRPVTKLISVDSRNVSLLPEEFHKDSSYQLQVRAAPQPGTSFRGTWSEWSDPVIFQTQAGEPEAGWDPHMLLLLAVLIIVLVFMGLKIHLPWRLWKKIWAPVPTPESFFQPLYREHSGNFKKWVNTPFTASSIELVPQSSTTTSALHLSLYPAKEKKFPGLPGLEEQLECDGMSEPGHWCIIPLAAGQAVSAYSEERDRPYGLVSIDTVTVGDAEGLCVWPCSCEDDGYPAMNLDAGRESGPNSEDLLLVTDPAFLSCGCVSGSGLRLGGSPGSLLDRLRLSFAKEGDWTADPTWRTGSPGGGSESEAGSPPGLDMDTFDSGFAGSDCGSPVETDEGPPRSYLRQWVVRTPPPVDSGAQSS
Test: cell-based or functional assay
Return type: number; implicit unit nM.

scFv H5 (scFv) scFv: QVQLQESGPGLVKTSETLSLTCAVSGYSISSGYYWGWIRQPPGKGLEWIGSISHTGNTYYNPPLKSRVTISVDTSKNQFSLKLSSVTAADTAVYYCARFLGFGRPEYWGKGTLVTVSSGGGGSGGGGSGGGGSALSSELTQDPPVSVALGQTVTLTCQGDSLRTYYASWYQQKSGQAPILLLYGKHKRPSGIPDRFSGSTSGDTASLTITGAQAEDEADYYCNSRDSSGNPHVLFGGGTQLTVL: 53.7
scFv L5 (scFv) scFv: QVQLQESGPGLVKTSETLSLTCAVSGYSISSGYYWGWIRQPPGKGLEWIGSISHTGNTYYNPPLKSRVTISVDTSKNQFSLKLSSVTAADTAVYYCARGGGISRPEYWGKGTLVTVSSGGGGSGGGGSGGGGSALSSELTQDPPVSVALGQTVTLTCQGDSLRTYYASWYQQKSGQAPILLLYGKHKRPSGIPDRFSGSTSGDTASLTITGAQAEDEADYYCASRSSKGNPHVLFGGGTQLTVL: 38.5
scFv L16 (scFv) scFv: QVQLQESGPGLVKTSETLSLTCAVSGYSISSGYYWGWIRQPPGKGLEWIGSISHTGNTYYNPPLKSRVTISVDTSKNQFSLKLSSVTAADTAVYYCARGGGISRPEYWGKGTLVTVSSGGGGSGGGGSGGGGSALSSELTQDPPVSVALGQTVTLTCQGDSLRTYYASWYQQKSGQAPILLLYGKHKRPSGIPDRFSGSTSGDTASLTITGAQAEDEADYYCVTRSAKGNPHVLFGGGTQLTVL: 4.71

Which IC50 (nM) in Murine IL-21R-BaF3 Neutralization Assay reading was recorded for the binder scFv L25 (scFv) scFv: QVQLQESGPGLVKTSETLSLTCAVSGYSISSGYYWGWIRQPPGKGLEWIGSISHTGNTYYNPPLKSRVTISVDTSKNQFSLKLSSVTAADTAVYYCARGGGISRPEYWGKGTLVTVSSGGGGSGGGGSGGGGSALSSELTQDPPVSVALGQTVTLTCQGDSLRTYYASWYQQKSGQAPILLLYGKHKRPSGIPDRFSGSTSGDTASLTITGAQAEDEADYYCTTRSNKGNPHVLFGGGTQLTVL ? 15.6
